test: LAP4-GFP expression modulators in yeast, confirmation, cell-based, cherry picks, flow cytometry, mother/daughter gates (AID 2271);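 note: ratio of sample to DMSO plate mean so 100% equals DMSO level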; conditions: S. cerevisiae LAP4-GFP strain, 3 h, measured here: daughter cell gate response, at 10 µM, stronger effect = higher value
Assign GFP response relative to DMSO to each entry below.
Answer in %, number only, no unit symbol.

Look up GFP response relative to DMSO: O=C1NC(=O)N(c2ccccc2)C(=O)/C1=C\c1ccc([N+](=O)[O-])o1
101

And the next one, COc1cc(/C=C/C(=O)c2c(O)n(CCc3ccccc3)c(=O)[nH]c2=O)ccc1O ?
90.4

And the next one, O=C1NC(=O)N(Cc2ccco2)C(=O)/C1=C\c1ccc(-c2ccc(F)cc2)o1 ?
115

And the next one, O=[N+]([O-])c1ccc(N2CCNCC2)cc1Sc1ccccn1 ?
92.5

And the next one, Cc1ccc(N2C(=O)NC(=O)/C(=C\c3cn(CC(=O)O)c4ccccc34)C2=O)cc1 ?
102

And the next one, C[C@]12CC[C@@H](O)C[C@@H]1CC[C@@H]1[C@@H]2CC[C@]2(C)[C@@H](O)CC[C@@H]12 ?
107

And the next one, O=c1[nH]c(=S)n(-c2ccccc2)c(O)c1/C=N/N1CCOCC1 ?
97.5

And the next one, O=C1NC(=S)NC(=O)C1=Cc1ccc2c(c1)CCN2CCCCl ?
110

And the next one, O=C1NC(=O)N(CCc2ccc(F)cc2)C(=O)/C1=C/c1cccs1 ?
142

And the next one, CN1C(=O)C(=Cc2ccc(Sc3ccccc3)o2)C(=O)N(C)C1=S ?
114

And the next one, O=C1NC(=O)C(=Cc2ccc(Sc3ccccc3)o2)C(=O)N1 ?
107

And the next one, Cc1ccc(/C=C2\C(=O)NC(=O)N(CC3CCCO3)C2=O)s1 (centres undefined) ?
102

And the next one, CN1C(=O)NC(=O)/C(=C\C=C\c2ccccc2[N+](=O)[O-])C1=O ?
103

And the next one, Nc1ccc2ccc3cccc[n+]3c2c1 ?
185

And the next one, CCCCn1c(=O)c(C(=O)Nc2ccsc2C(=O)OC)c(O)c2ccccc21 ?
95.9

And the next one, O=c1oc2ccccc2c(O)c1[C@H]1c2ccc(O)cc2Oc2c1c(=O)oc1ccccc21 ?
167

And the next one, COc1ccc(N2C(=O)/C(=C/c3ccco3)C(=O)NC2=S)cc1 ?
94.1

And the next one, O=C(O)c1nn(Cc2ccc(Cl)cc2Cl)c2ccccc12 ?
100

And the next one, O=C1NC(=O)N(c2ccccc2)C(=O)/C1=C/c1ccc(Sc2ccccc2)o1 ?
135

---

target: Botulinum neurotoxin type A (Clostridium botulinum) (UniProt P0DPI0); assay: BoNT/A light chain protease inhibitors, biochemical, multiplex microsphere flow cytometry, validation set (AID 588460); conditions: at 10 µM, stronger effect = higher value
Sequence (P0DPI0 whole entry, looked up): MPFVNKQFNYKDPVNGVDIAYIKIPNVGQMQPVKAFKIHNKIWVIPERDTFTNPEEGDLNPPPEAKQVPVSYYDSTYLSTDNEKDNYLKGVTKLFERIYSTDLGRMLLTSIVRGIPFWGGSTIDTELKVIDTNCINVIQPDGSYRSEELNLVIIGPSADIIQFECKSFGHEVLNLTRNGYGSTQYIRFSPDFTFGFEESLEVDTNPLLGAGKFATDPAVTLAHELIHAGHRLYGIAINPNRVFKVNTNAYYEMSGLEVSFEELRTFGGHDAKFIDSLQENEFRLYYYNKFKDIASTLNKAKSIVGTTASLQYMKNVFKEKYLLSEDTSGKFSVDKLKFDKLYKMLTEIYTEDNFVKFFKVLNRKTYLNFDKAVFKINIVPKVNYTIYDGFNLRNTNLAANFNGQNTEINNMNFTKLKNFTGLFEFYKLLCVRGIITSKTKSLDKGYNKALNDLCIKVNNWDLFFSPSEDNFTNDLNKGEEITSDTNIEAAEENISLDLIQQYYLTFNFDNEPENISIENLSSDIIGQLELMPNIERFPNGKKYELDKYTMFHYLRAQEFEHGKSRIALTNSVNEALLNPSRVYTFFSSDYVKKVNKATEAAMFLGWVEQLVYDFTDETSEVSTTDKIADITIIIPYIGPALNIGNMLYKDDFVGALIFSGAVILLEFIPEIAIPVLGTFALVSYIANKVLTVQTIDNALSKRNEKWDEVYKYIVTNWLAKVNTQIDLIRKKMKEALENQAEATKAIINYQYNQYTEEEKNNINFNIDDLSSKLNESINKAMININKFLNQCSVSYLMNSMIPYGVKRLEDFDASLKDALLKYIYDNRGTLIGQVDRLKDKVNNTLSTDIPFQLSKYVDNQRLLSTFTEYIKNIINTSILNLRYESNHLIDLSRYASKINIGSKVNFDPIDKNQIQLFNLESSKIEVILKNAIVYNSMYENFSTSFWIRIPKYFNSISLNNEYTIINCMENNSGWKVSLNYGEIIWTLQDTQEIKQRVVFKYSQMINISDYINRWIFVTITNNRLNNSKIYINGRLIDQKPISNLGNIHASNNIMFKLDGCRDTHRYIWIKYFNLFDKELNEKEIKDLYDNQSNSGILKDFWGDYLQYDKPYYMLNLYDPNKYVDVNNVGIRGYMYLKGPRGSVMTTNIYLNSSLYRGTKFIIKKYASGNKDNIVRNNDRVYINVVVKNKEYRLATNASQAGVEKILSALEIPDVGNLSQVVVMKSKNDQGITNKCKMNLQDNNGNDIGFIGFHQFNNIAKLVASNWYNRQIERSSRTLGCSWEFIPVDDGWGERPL
readoutKind: inhibition (%)
Answer in %, number only, no unit symbol.

Look up inhibition: O=C(COc1ccccc1)Nc1ccc2c(c1)C(=O)N(CC1CCCO1)C2=O (centres undefined)
-0.9

And the next one, COc1ccc(CCNC(=O)CC(c2ccccc2)c2cccc(C)c2O)cc1OC (centres undefined) ?
-0.9

And the next one, CC(=O)Oc1ccc(C(c2ccc(OC(C)=O)cc2)c2ccccn2)cc1 ?
-0.3

And the next one, Cc1cc(NS(=O)(=O)c2ccc(N)cc2)no1 ?
0.1

And the next one, CC(=O)N1CC2(C)CN(C(C)=O)CC(C)(C1)C2 ?
-1.6

And the next one, CC1(C)C2CCC1(C(=O)O)c1nc3ccccc3nc12 (centres undefined) ?
-0.9

And the next one, Cn1c(=O)[nH]c2nnc(-c3ccc(Cl)c(Cl)c3)nc2c1=O ?
0.4

And the next one, CCCCNC(=O)NS(=O)(=O)c1ccc(C)cc1 ?
1.1

And the next one, COc1cccc(N2C(=O)CC(c3c[nH]c4ccccc34)C2=O)c1 (centres undefined) ?
2.4

And the next one, Cc1cccc(C)c1NC1=NCCCS1 ?
-0.6

And the next one, N/C(=N\OC(=O)CCCOc1ccc(Cl)cc1Cl)c1ccccn1 ?
-0.3

And the next one, COCCCC/C(=N\OCCN)c1ccc(C(F)(F)F)cc1 ?
-0.2

And the next one, CCNC(=S)Nc1ccc(OC(F)(F)F)cc1 ?
2.8

And the next one, COc1ccc(/C=C2\CCc3ccccc3C2=O)c(OC)c1OC ?
0.8

And the next one, Cn1c2[n+](c3ccc(Cl)cc3c1=O)Cc1ccccc1-2 ?
-1

And the next one, CC(C)(C)c1ccc(/C=C/C(=O)N2CCCCC2)cc1 ?
-1.5

And the next one, CS(=O)(=O)c1cccc(C(=O)Oc2ccccc2)c1 ?
0.1

And the next one, O=C(Nc1cccc(-c2nc3ncccc3o2)c1)c1ccccc1 ?
-0.9

And the next one, Cc1cc(=O)oc2cc(OC(C)C(=O)NCC3CCCO3)ccc12 (centres undefined) ?
0.9

And the next one, Cc1ccsc1C1NC(=O)c2ccccc2N1 (centres undefined) ?
-1.3

And the next one, Cn1c(Oc2ccc3c(c2)OCO3)nc2c1c(=O)n(Cc1ccccc1)c(=O)n2C ?
-0.3

And the next one, CC(=O)OC[C@H]1O[C@@H](n2ncc(=O)[nH]c2=O)[C@H](OC(C)=O)[C@@H]1OC(C)=O ?
-0.3

And the next one, COc1ccc2c(c1)CC[C@@H]1[C@@H]2CC[C@]2(C)C(=O)CC[C@@H]12 ?
-1.5

And the next one, Cc1ccc(CN2CCN(Cc3cn[nH]c3C3CCCCC3)CC2CCO)cc1 (centres undefined) ?
-0.4

---

test: modulators of AGP1-GFP expression in yeast TOR pathway, primary screen, cell-based, multiplex flow cytometry, S. cerevisiae (AID 1887); settings: 3 h, at 10 µM, stronger effect = higher value;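 note: AGP1-GFP fusion strain of S. cerevisiae within a five-strain barcoded multiplex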
Inconclusive results are not listed.
readoutKind: GFP response, % of DMSO (%)
Answer in %, number only, no unit symbol.

Look up GFP response, % of DMSO: CCOC(=O)c1cc2c(cn1)[nH]c1ccccc12
94.5

And the next one, COP(=S)(OC)SCN1C(=O)c2ccccc2C1=O ?
107

And the next one, NNC(=O)c1ccc(Cl)cc1 ?
102

And the next one, OC1CCCCC1N1CCC(c2ccccc2)CC1 (stereo not given) ?
89.4

And the next one, Cc1ccc2c(c1)C1CN(C)CCC1N2C(=O)Nc1cccc(Cl)c1 (stereo not given) ?
102

And the next one, C[C@]12CC[C@@H](O)C[C@@H]1CC[C@@H]1[C@@H]2CC[C@]2(C)[C@@H](O)CC[C@@H]12 ?
106

And the next one, CC12CC[C@H]3[C@@H](CCC4(O)C[C@H](O)CCC34/C=N/NC(=O)Cc3ccccc3)C1(O)CCC2C1=CC(=O)OC1 (stereo not given in full) ?
107

And the next one, CN1C2CCC1CC(OC(=O)c1ccc(Cl)cc1)C2 (stereo not given) ?
108

And the next one, Cn1c(O)c(C=NCCc2c[nH]c3ccccc23)c(=O)n(C)c1=O ?
110

And the next one, C=C1[C@@H](C)[C@H]2[C@H](Cc3ccccc3)NC(=O)[C@]23OC(=O)/C=C/[C@H](O)CCC[C@@H](C)C/C=C/[C@H]3[C@@H]1O ?
119

---

Assign inhibition to each entry below.
target: Botulinum neurotoxin type A (Clostridium botulinum) (UniProt P0DPI0); assay: BoNT/A light chain protease inhibitors, biochemical, multiplex microsphere flow cytometry, validation set (AID 588460); conditions: at 10 µM, stronger effect = higher value
Answer in %, number only, no unit symbol.

Look up inhibition: COc1ccc2nc(NC(=O)Nc3ccccc3)sc2c1
-2.6

And the next one, COc1cc2c(cc1OC)-c1nnc(C)n1C(C)(C)C2 ?
0.2

And the next one, Cc1c(OCC(=O)NC(Cc2c[nH]c3ccc(O)cc23)C(=O)O)ccc2c3c(c(=O)oc12)CCC3 (configuration not stated) ?
-1.1

And the next one, C=C(C)c1nc2cc(OC)c(OC)cc2c(=O)o1 ?
-1.3

And the next one, C=CCc1cccc2cc(C(=O)Nc3ccc(CC(=O)O)cc3)c(=O)oc12 ?
-0.1

And the next one, Cc1cccc(C)c1NC(=O)C1CCCCN1C (configuration not stated) ?
-0.1

And the next one, C[N+](C)(C)CCCC(=O)c1ccc2c(c1)OCO2 ?
-1.8

And the next one, Cc1c(O)c(=O)ccn1C ?
-1

And the next one, CCN(CC)c1ccc([C@H]2[C@@H]3CCCC[C@]3(O)CCN2CC(=O)NCc2ccco2)cc1 ?
0.9

And the next one, CCNCCC(CCC(C)C)c1ccc2c(c1)OCO2 (configuration not stated) ?
-1.3

And the next one, C=C(C)[C@@H]1CC=C(CN2CCC(N3CCC(C(=O)N4CCCC4)CC3)CC2)CC1 ?
0.8

And the next one, CC1(C)OC2OC(C(=O)N/N=C/c3ccccc3F)C3OC(C)(C)OC3C2O1 (configuration not stated) ?
-1.3

And the next one, CCc1cc(=O)oc2cc(C)c(CN3CCCC(C)C3)c(O)c12 (configuration not stated) ?
-0.1

And the next one, CN1/C(=C\C=Nc2ccccc2)C(C)(C)c2ccccc21 ?
0.8

And the next one, OC(CCN1CCCCC1)(c1ccccc1)C1CCCCC1 (configuration not stated) ?
1

And the next one, Cc1cccc(C2=N/C(=C\c3cccnc3)C(=O)O2)c1 ?
1.9

And the next one, CC(C)C[C@H]1C(=O)N2CCC[C@H]2[C@]2(O)O[C@](NC(=O)[C@@H]3C=C4c5cccc6[nH]c(Br)c(c56)CC4N(C)C3)(C(C)C)C(=O)N12 (some centres not stated) ?
1.3

And the next one, COc1ccc2cc(-c3nc4ccccc4n3C)c(=O)oc2c1 ?
1.8

And the next one, CC1=C(/C=C/C(C)=C/C=C/C(C)=C/C(=O)O)C(C)(C)CCC1 ?
-0.1

And the next one, O=C1c2ccccc2N2C(=O)c3ccccc3C2N1Cc1ccco1 (configuration not stated) ?
0.7

And the next one, CC12CCC3C(CC=C4CC(O)CCC43C)C1C/C(=C\c1cccc(F)c1)C2=O (configuration not stated) ?
-0.1

And the next one, CCc1cccc2c3c([nH]c12)C(CC)(CC(=O)O)OCC3 (configuration not stated) ?
-0.3
